Just for reference, PubChem BioAssay (NCATS) is where these values come from.

- assay: Primary fluorescence-based thiol-reactive (MSTI) qHTS assay for identification of artifact compounds. (AID 1845221);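 also: thiol-reactive compounds lower the probe fluorescence signal; nearly all actives have a fitted effect of over 65% in size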
- run_conditions: MSTI thiol-reactivity probe, 1 h; series mostly up to 53.8 µM
Records with an inconclusive call do not appear. Active and inactive are the calls of the source. Calls follow the shape of the dose curve; as a rule, active = well fitted inhibition curve with a large enough effect; inconclusive = small, poorly fitted or top-dose-only effect; inactive = no such curve, though single readings can be large or run the other way.
Tick one outcome: active, inactive

{"compound": "Cc1ccccc1-n1c([C@H](C)Nc2nc(N)nc3nc[nH]c23)nc2cccc(C)c2c1=O", "category_label": "inactive"}
{"compound": "C[C@@H]1N[C@H]2N(C1=O)c1ccccc1[C@@]2(O)C[C@@H]1C(=O)N[C@@H](C)c2nc3ccccc3c(=O)n21", "category_label": "inactive"}
{"compound": "CC[C@H](CO)Nc1nc(NCc2ccc(-c3ccccn3)cc2)c2ncn(C(C)C)c2n1", "category_label": "inactive"}
{"compound": "C=C1[C@H](OC(C)=O)[C@H]2[C@@H](OC(C)=O)[C@](C)(OC(C)=O)C[C@]2(OC(C)=O)C(=O)[C@H](C)/C=C/C(C)(C)C(=O)[C@H](OC(=O)C(C)C)[C@H]1OC(C)=O", "category_label": "inactive"}

I would be grateful if you could indicate the recorded call for C[C@@H]1CC[C@]2(C(=O)O[C@@H]3O[C@H](CO)[C@@H](O)[C@H](O)[C@H]3O)CC[C@]3(C)C(=CCC4[C@@]5(C)C[C@@H](O)[C@H](O)[C@](C)(C(=O)O)C5CC[C@]43C)[C@@H]2[C@]1(C)O (stereo partly specified) .
inactive

Now this one: C=C(C)C(=O)OC1C(OC(C)=O)/C(C=O)=C\CC/C(CO)=C/C2OC(=O)C(=C)C21 (stereo unspecified)
inactive

----------
- Tested on: CASKI
- assay: Primary qHTS to identify gynecologic anti-cancer compounds using libraries of approved drugs and bioactive compounds (AID 1345084); also: nearly all actives have a fitted effect of over 55% in size
- run_conditions: Gynecologic cancer cell panel viability, ATPlite luminescence, 48 h; series mostly up to 57.5 µM
- Description: National Center for Advancing Translational Sciences [NCATS] Assay Overview: Chemotherapeutic drug responses vary from cancer to cancer and from patient to patient. […] ATPlite is a luminescence based assay reliant on the conversion of a luciferase substrate to light in the presence of ATP. As a cytotoxic compound will suppress growth and decrease the number of cells, the concentration of ATP will decrease, and less light signal will be detected in the well. […]
Results filed as inconclusive are left out. Active and inactive are the calls of the source. Calls follow the shape of the dose curve; as a rule, active = well fitted cell-killing curve with a large enough effect; inconclusive = small, poorly fitted or top-dose-only effect, or effect the other way; inactive = flat fitted curve, though single readings scatter.
Tick one outcome: YES (active), NO (inactive)

{"compound": "O=C1CCC=CC1(O)C(=O)OCc1ccccc1O[C@@H]1O[C@H](CO)[C@@H](O)[C@H](O)[C@H]1O (some centres undefined)", "target_of_assay": "CASKI", "category_label": "NO"}
{"compound": "C[C@H](Oc1ccc(S(C)(=O)=O)cc1C(=O)N1CCN(c2ncc(C(F)(F)F)cc2F)CC1)C(F)(F)F", "target_of_assay": "CASKI", "category_label": "NO"}
{"compound": "Fc1ccc2nc(CCC#Cc3ccccn3)cn2c1", "target_of_assay": "CASKI", "category_label": "NO"}
{"compound": "CCC(C)C(=O)O[C@H]1CCC=C2C=C[C@H](C)[C@H](CC[C@@H](O)C[C@@H](O)CC(=O)O)[C@H]21 (some centres undefined)", "target_of_assay": "CASKI", "category_label": "NO"}
{"compound": "COC(=O)C1=CO[C@@H](O[C@@H]2O[C@H](CO)[C@@H](O)[C@H](O)[C@H]2O)[C@@H]2C(CO)=CC[C@]12O", "target_of_assay": "CASKI", "category_label": "NO"}
{"compound": "Cc1ccc(NC(=O)Nc2cc(C(F)(F)F)ccc2F)cc1Nc1ccc2c(c1)NC(=O)/C2=C\\c1ccc[nH]1", "target_of_assay": "CASKI", "category_label": "NO"}
{"compound": "O=C(O)c1ccccc1NCCc1ccccc1", "target_of_assay": "CASKI", "category_label": "NO"}
{"compound": "C=C(C(=O)O)C1CCC2(C)CCC(O)C(=C)C2C1 (centres undefined)", "target_of_assay": "CASKI", "category_label": "NO"}

I would be grateful if you could indicate the recorded call for "Cc1ccccc1-n1c([C@H](C)Nc2nc(N)nc3nc[nH]c23)nc2cccc(C)c2c1=O" .
YES
